meta.source: PubChem BioAssay (NCI)

# System: BT-549 breast
# Protocol Details: NCI-60 one-dose screen, 48 h (100 = growth as untreated, 0 = no growth, -100 = all killed)
# Cond: 10 µM unless noted
Compounds without any hit were thinned out: in the full panel of roughly 83,000, 20% have a hit.
Quantity Kind: growth (%)

| Line Notation | Quantity Kind | Meas Value |
| --- | --- | --- |
| Nc1nc(Nc2cccc(F)c2)nc2ccccc12 | growth | 75.7 |
| CCOC(=O)c1c2c(n3cccc(Cl)c13)C(=O)c1ncccc1C2=O | growth | 69.2 |
| CC(C)Cn1c2c(c(=S)[nH]c1=O)CCC2 | growth | 108 |
| O=C(CSc1ncccc1C(=O)O)Nc1ccc(Oc2ccccc2)cc1 | growth | 97.8 |
| COc1ccc(/C=C/C(=O)c2ccc3cc(OC)c(OC)cc3c2)cc1OC | growth | 33.9 |
| O=C(Nc1ccsc1C(=O)NC1CCCCC1)c1ccc(F)cc1 | growth | 113 |

* * *

Below, each entry is listed alongside its reported growth.
# Tested on: HCT-116 colon
# Protocol Details: NCI-60 one-dose screen, 48 h (100 = growth as untreated, 0 = no growth, -100 = all killed)
# Cond: 10 µM unless noted
The panel holds about 83,000 compounds, 20% with a hit somewhere; the sample as a whole holds those more often.

| Molecule | Tested System | growth, % |
| --- | --- | --- |
| O=C1c2ccccc2C(=O)c2c1ccc1[nH]c(CCl)nc21 | HCT-116 colon | -6.49 |
| O=CCCCC(O)C=O (stereo unspecified) | HCT-116 colon | 109 |
| N#Cc1c(N)nc2c(c1N)C(c1ccc(F)cc1)c1ccc(N)cc1O2 (stereo unspecified) | HCT-116 colon | 101 |
| CCOc1cc(Cl)c(C(C)NC(=O)c2cccc(OC)c2)cc1OCC (stereo unspecified) | HCT-116 colon | -57.5 |
| COc1cc(NC(=O)CCSc2nc3ccccc3c(=O)n2Cc2ccccc2)cc(OC)c1OC | HCT-116 colon | 83.7 |
| NNC(=O)CNC(=O)Nc1n[nH]c(=S)s1 | HCT-116 colon | 94.1 |
| CN1C(=O)N(C)C2(c3ccccc3)OC(=S)NC12c1ccccc1 (stereo unspecified) | HCT-116 colon | 94.8 |
| CC(=O)SC1CC(=O)C=C2CCC3C4CCC(=O)OC4(C)CCC3C21C (stereo unspecified) | HCT-116 colon | 102 |
| Cn1cc([C@@H]2Nc3ccc4[nH]ncc4c3[C@H]3[C@H]4CCC(C4)[C@H]32)c(C(F)(F)F)n1 | HCT-116 colon | 27.6 |
| O=C(Nc1ccsc1C(=O)NC1CCCCC1)c1ccc(F)cc1 | HCT-116 colon | 76 |
| O=c1c2cc(F)cc(Cl)c2sc2c(Cl)nc3ccccc3c12 | HCT-116 colon | 104 |

* * *

# Tested on: HCT-15 colon
# Protocol Details: NCI-60 one-dose screen, 48 h (100 = growth as untreated, 0 = no growth, -100 = all killed)
# Cond: 10 µM unless noted
This is part of a sample that, as a whole, favours compounds with a hit. Of some 83,000 tested, about 20% had one in any assay.
Class YES: growth at least 60%. Class NO: growth below 60%.

| Compound | Tested System | Assigned Label |
| --- | --- | --- |
| CCOC(=O)C1=C(C)c2ccc(OC)c(OC)c2C1 | HCT-15 colon | YES |
| O=C1C(=O)c2c(ccc3ccccc23)-c2ccccc21 | HCT-15 colon | NO |
| COc1cc(C=C2C(=O)N(C)C(=O)N(C)C2=O)cc(CN2CCCCC2)c1O | HCT-15 colon | YES |
| O=C(NC1CCN(Cc2ccccc2)CC1)c1cc2nc(-c3ccc(Cl)s3)cc(C(F)(F)F)n2n1 | HCT-15 colon | YES |
| O=C(Nc1ccc(Cl)cc1F)c1cc(I)ccc1O | HCT-15 colon | NO |
| Cc1ccc2nc(NC(=O)CSC(=S)N3CCN(c4ccccc4)CC3)sc2c1 | HCT-15 colon | YES |
| CN(C)CCCNCc1ccc(-c2ccc(F)c(Cl)c2)o1 | HCT-15 colon | NO |
| Nc1ccc(-n2c(=O)oc3ccc(Cl)cc3c2=O)c(Cl)c1 | HCT-15 colon | NO |
| COc1cc(C(C)n2cc(-c3ccccc3)nn2)ccc1OC1CCCC1 (configuration not stated) | HCT-15 colon | YES |
| Clc1ccc(COc2ccc(Nc3ncnc4onc(-c5ccccc5)c34)cc2)cc1 | HCT-15 colon | YES |
| CCOc1cc2c(cc1OCC)C(c1cc(C)c(O)c(C)c1)NCC2 (configuration not stated) | HCT-15 colon | YES |
| COC(=O)C1=C(C)NC(C)=C(C(=O)OC)C(N2C(=O)CCC2=O)C1 (configuration not stated) | HCT-15 colon | YES |
| O=c1oc2ccc(Cl)cc2c(=O)n1-c1ccc(Cl)cc1F | HCT-15 colon | NO |
| OCCNc1nc(Nc2ccc(C3=NN(c4cc(Cl)cc(Cl)c4)C(c4ccc(C(F)(F)F)cc4)C3)cc2)nc(N2CCOCC2)n1 (configuration not stated) | HCT-15 colon | NO |
| N#C/C(=C\c1c(-c2ccccc2)[nH]c2ccccc12)S(=O)(=O)c1ccccc1 | HCT-15 colon | NO |
| COc1cc2c(cc1OC)C(=O)C(CC1CCN(C(=O)Nc3ccc(C)cc3)CC1)C2 (configuration not stated) | HCT-15 colon | YES |
| O=C1/C(=C/c2ccc(O)cc2)COc2ccc(O)c(O)c21 | HCT-15 colon | NO |
| O=C(O)CCC(=O)c1ccc(C2CCCCCC2)cc1 | HCT-15 colon | YES |
| CC1=C(C(=O)OCC2CCN(C(=O)OC(C)(C)C)CC2)[C@H](c2cccc(C#N)c2)C2=C(CC(C)(C)CC2=O)N1 | HCT-15 colon | NO |
| O=C(Cc1ccccc1)NC(c1ccc(Cl)cc1)c1c(O)ccc2ccccc12 (configuration not stated) | HCT-15 colon | NO |
| CCCCC1COc2cccc3c2N1C=C/C3=C\C(=O)N(C)c1ccccc1 (configuration not stated) | HCT-15 colon | YES |
| O=c1oc2ccc(Br)cc2c(=O)n1-c1ccc(Br)cc1F | HCT-15 colon | NO |

* * *

# Tested on: KM12 colon
# Protocol Details: NCI-60 one-dose screen, 48 h
# Cond: 10 µM unless noted
About 83,000 compounds went through this panel and 20% of them were active in at least one assay; those are over-represented in the sample as a whole. The source made the active and inactive calls. The calls were made as follows: active = growth percent below 10; inactive = the rest.
Outcomes: yes (1) = active, no (0) = inactive

| Molecule | Assigned Label |
| --- | --- |
| CS(=O)(=O)Nc1ccc(C(=O)NC(C(=O)NO)c2ccc(-c3cccc(F)c3)cc2)cc1 (stereo not given) | no (0) |
| O=c1[nH]nnc2c1ncn2C1OC(CO)C(O)C1O (stereo not given) | no (0) |
| CC(=O)O[C@@H]1/C=C/C(=O)N[C@@H](C)CCC/C=C/[C@@H]2CCC[C@H]21 | no (0) |
| Cc1sc2ncnc(Sc3nc4ccccc4[nH]3)c2c1C | yes (1) |
| COc1ccc(/C=C2\NC(=O)NC2=O)cc1O | no (0) |
| COc1ccccc1CNC(=O)C1c2ccccc2C(=O)N(CC(C)C)C1c1cccs1 (stereo not given) | no (0) |
| COc1ccc(N(C)c2nc(N)nc3sc4c(c23)CCCC4)cc1 | yes (1) |
| O=C(/C=C/c1ccc(Cl)cc1)c1ccc(Nc2nc(NCCO)nc(N3CCOCC3)n2)cc1 | no (0) |
| Cc1ccc(C2CC(c3ccc(Nc4nc(NCCO)nc(Nc5ccc(Cl)cc5)n4)cc3)=NN2c2cc(Cl)cc(Cl)c2)cc1 (stereo not given) | no (0) |
| O=C(Nc1ccc(F)cc1F)c1cc(I)ccc1O | yes (1) |

* * *

Below, each entry is listed alongside its reported growth.
# System: RXF 393 renal
# Protocol Details: NCI-60 one-dose screen, 48 h (100 = growth as untreated, 0 = no growth, -100 = all killed)
# Cond: 10 µM unless noted
About 83,000 compounds went through this panel and 20% of them were active in at least one assay; those are over-represented in the sample as a whole.

| Molecule | Tested System | growth (%) |
| --- | --- | --- |
| COc1ccc(N)c(-c2cc3c(c4c2[nH]c2ccc(OC)cc24)CCCC3)c1 | RXF 393 renal | 87.1 |
| COC(=O)c1c2c(c(C)[n+]([O-])c1C)C(=O)C=C(NCc1ccc(F)c(F)c1)C2=O | RXF 393 renal | -51 |
| COC(=O)c1c2c(c(C)[n+]([O-])c1C)C(=O)C=C(NCc1ccccc1)C2=O | RXF 393 renal | -25.3 |
| Cc1nc(Nc2ccccn2)sc1C(=O)/C=C/c1ccc(Cl)cc1 | RXF 393 renal | 20.2 |
| CN1C(=O)N(C)C2(c3ccccc3)OC(=S)NC12c1ccccc1 (configuration not stated) | RXF 393 renal | 114 |
| O=C(O)CCCN1C(=O)C2C3CCC(C3)C2C1=O (configuration not stated) | RXF 393 renal | 83.8 |
| COc1cc2cc3c(=O)n4c(cc5cc(OC)ncc54)c(=O)n3c2cn1 | RXF 393 renal | 106 |
| c1ccc(-c2ccc(-c3nc4ccccc4[nH]3)cc2)cc1 | RXF 393 renal | 92.1 |
| O=C(Nc1ccc(Br)cc1F)c1cc(I)ccc1O | RXF 393 renal | 1.53 |
| Cc1cc(Nc2ccc(OCc3ccccc3)cc2)nc2cc(O)ccc12 | RXF 393 renal | 93.7 |
| O=C(N/N=C/c1ccccc1Cl)C(=O)Nc1cccc(C(F)(F)F)c1 | RXF 393 renal | 97.9 |
| O=C(CN1C=NC2C(N3CCOCC3)=NC=NC21)c1ccc(Br)cc1 (configuration not stated) | RXF 393 renal | 103 |
| COc1ccc(C)c2sc(N(Cc3cccnc3)C(=O)c3ccc(C#N)cc3)nc12 | RXF 393 renal | -31 |
| CC1CCCCN1CCCNC(=O)c1ccc2c(c1)sc1nc(-c3ccc(F)cc3)cn12 (configuration not stated) | RXF 393 renal | 91.7 |
| COc1ccc(Cn2c(Br)c3c(c2Br)-c2nc(NC(=O)c4ccc(OC)cc4)sc2CC3)cc1 | RXF 393 renal | 57 |
| Cc1[nH]c2ccccc2c(=O)c1CC=C(Cl)Cl | RXF 393 renal | 63.9 |
| Cc1ccc(S(=O)c2ccc([N+](=O)[O-])c3nonc23)cc1 (configuration not stated) | RXF 393 renal | 111 |
| CC1(O)COCCCCOc2c(CN)cccc2NC(=O)c2nc(cnc2N)-c2ccc(cc2)S(=O)(=O)C(C)(C)C1 (configuration not stated) | RXF 393 renal | -76.2 |
| CCOC(=O)c1sc(-c2ccc(OS(=O)(=O)c3cccs3)c(C=O)c2)nc1C | RXF 393 renal | 19 |
| CN1C(=O)N(C)C2Nn3c(s/c(=C4\C(=O)N(CCc5ccccc5)c5ccccc54)c3=O)=NC21 (configuration not stated) | RXF 393 renal | 64.1 |
| COc1ccccc1C(=O)O/N=C(\N)Cc1cccc2ccccc12 | RXF 393 renal | 102 |
| Nc1nonc1-n1nncc1-c1cccnc1 | RXF 393 renal | 115 |
| COc1ccc(/C=C2\N=C(c3ccccc3)N(c3ccc(-c4nc5ccc(C)cc5s4)cc3)C2=O)cc1 | RXF 393 renal | 99 |
| CCOC(=O)c1cnc2c(C)cccc2c1Nc1ccc(C(C)=O)cc1 | RXF 393 renal | -54.5 |
| COc1ccc(-c2nsc3c2NC(=O)CC3c2cccc(OC)c2)cc1 (configuration not stated) | RXF 393 renal | 16.8 |
| COc1nccc2cc3c(=O)n4c(cc5ccccc54)c(=O)n3c12 | RXF 393 renal | 112 |
| O=c1oc2ccc(Br)cc2c(=O)n1-c1ccc(I)cc1F | RXF 393 renal | -1.04 |
| O=c1oc2ccc(F)cc2c(=O)n1-c1ccc(Cl)cc1F | RXF 393 renal | -2.79 |
| CCOC(=O)c1sc(-c2ccc(OS(=O)(=O)c3ccc(Br)s3)c(C=O)c2)nc1C | RXF 393 renal | 51.7 |
| O=C(c1nc2ccccc2[nH]1)C1C(c2cccc([N+](=O)[O-])c2)C2CC3CCCCC3N2[C@@]12C(=O)Nc1cc(Cl)ccc12 (some centres not stated) | RXF 393 renal | -52.5 |
| O=C(NC(=S)Nc1cccc(NC(=S)NC(=O)c2ccccc2)c1)c1ccccc1 | RXF 393 renal | 85.4 |
| C1CCN(c2nc(N3CCCCC3)nc(N3CCOCC3)n2)CC1 | RXF 393 renal | 107 |
| Cc1nc(Nc2cn[nH]c2C(=O)Nc2ccc(CN3CCN(C)CC3)cc2)c2ccsc2n1 | RXF 393 renal | 61.7 |
| Cc1sc2ncnc(Sc3nc4ccccc4[nH]3)c2c1C | RXF 393 renal | -59.7 |
| Cn1c(/C=C(\C#N)c2cccc(C(F)(F)F)c2)nc2c(N3CCOCC3)nc(Cl)nc21 | RXF 393 renal | -92.2 |
| c1ccc(CNc2nc(Nc3ccccc3)nc3ccccc23)cc1 | RXF 393 renal | 2.83 |
| CCc1ccc(CNCC(O)c2ccccc2)cc1 (configuration not stated) | RXF 393 renal | 61.6 |
| COc1ccc(C(O)(CCC(C)C)C(CN2CCOCC2)c2ccc(Cl)cc2)cc1 (configuration not stated) | RXF 393 renal | 88.3 |
| COc1cc(C2CC(c3ccc(Nc4nc(NCCO)nc(N5CCOCC5)n4)cc3)=NN2c2cc(Cl)cc(Cl)c2)cc(OC)c1OC (configuration not stated) | RXF 393 renal | 5.08 |
| O=C(Nc1ccsc1C(=O)NC1CCCCC1)c1ccc(F)cc1 | RXF 393 renal | 95.6 |
| O=c1oc2ccc(Br)cc2c(=O)n1-c1ccc(Cl)cc1F | RXF 393 renal | 4.25 |
| Nc1n[nH]c2ccc([C@@H]3Nc4ccc5[nH]ncc5c4[C@H]4[C@H]5CCC(C5)[C@H]43)cc12 | RXF 393 renal | 25.6 |
